Assay: Solubility in 0.9% saline
Type: physicochemical
property.measured: solubility (µg/mL)

{"columns": ["structure", "recorded.result"],
 "data": [
  ["COc1cnc(-c2ccc(Cn3c(CC(C)(C)C(=O)O)c(SC(C)(C)C)c4cc(OC[C@@H]5Cc6ccccc6N5C(C)=O)ccc43)cc2)nc1", 30]
]}

====

Molecular target: CYP3A4 (Homo sapiens)
Sequence (P08684 whole entry): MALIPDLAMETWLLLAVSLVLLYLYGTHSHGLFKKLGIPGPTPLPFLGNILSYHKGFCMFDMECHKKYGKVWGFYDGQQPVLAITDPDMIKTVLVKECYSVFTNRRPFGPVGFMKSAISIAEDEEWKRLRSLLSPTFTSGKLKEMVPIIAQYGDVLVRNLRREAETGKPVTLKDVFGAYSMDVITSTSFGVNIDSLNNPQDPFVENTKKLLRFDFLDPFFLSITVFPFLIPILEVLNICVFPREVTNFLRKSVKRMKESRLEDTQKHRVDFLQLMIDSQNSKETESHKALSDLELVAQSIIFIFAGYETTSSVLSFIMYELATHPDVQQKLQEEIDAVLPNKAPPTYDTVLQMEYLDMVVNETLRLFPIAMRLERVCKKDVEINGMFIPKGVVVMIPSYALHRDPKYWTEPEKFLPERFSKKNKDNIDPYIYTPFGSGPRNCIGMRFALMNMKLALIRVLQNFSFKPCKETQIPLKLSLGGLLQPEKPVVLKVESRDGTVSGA
Test: Inhibition of CYP3A4 at 10 uM
Type: ADME
# Lookup of reported inhibition at 10 µM keyed by entry

{"columns": ["structure", "lt.gt.eq", "inhibition at 10 µM / %"],
 "data": [
  ["CC(=O)N1c2ccccc2C[C@H]1COc1ccc2c(c1)c(Cc1ccccc1)c(CC(C)(C)C(=O)O)n2Cc1ccc(Cl)cc1", ">", 80],
  ["CC(=O)N1c2ccccc2C[C@H]1COc1ccc2c(c1)c(CC(C)C)c(CC(C)(C)C(=O)O)n2Cc1ccc(Cl)cc1", ">", 80],
  ["CC(=O)N1c2ccccc2C[C@H]1COc1ccc2c(c1)c(CCC(C)(C)C)c(CC(C)(C)C(=O)O)n2Cc1ccc(Cl)cc1", ">", 80],
  ["CC(=O)N1c2ccccc2C[C@H]1COc1ccc2c(c1)c(SC(C)(C)C)c(CC(C)(C)C(=O)O)n2Cc1ccc(Cl)cc1", "=", 80],
  ["CC(=O)N1CCC[C@H]1COc1ccc2c(c1)c(SC(C)(C)C)c(CC(C)(C)C(=O)O)n2Cc1ccc(Cl)cc1", "=", 64]
]}
